# collection of pIC50 values tested on Tyrosinase (Agaricus bisporus)
On this scale, pIC50 is minus log10 of a concentration expressed in M (mol/L).

Illustrative cases are given below, each with its answer.
CCOC(=O)CCCOc1ccc(C/C(C)=N/NC(N)=S)cc1 : 6.32
CCC(CC)Oc1ccc(CC/C(C)=N/NC(N)=S)cc1 : 6.35
C/C(CCc1ccc(OC(=O)C(C)C)cc1)=N\NC(N)=S : 6.54
C/C(CCc1ccc(OCCCc2ccccc2)cc1)=N\NC(N)=S : 6.08
C/C(Cc1ccc(OCc2ccccc2)cc1)=N\NC(N)=S : 6.47

Here is the next item to consider.
Give Tyrosinase (Agaricus bisporus) pIC50 for `CCOc1ccc(CC/C(C)=N/NC(N)=S)cc1`
6.68

---

SYSTEM_UNDER_TEST: Tyrosinase (Agaricus bisporus)
Sequence (O42713 whole entry): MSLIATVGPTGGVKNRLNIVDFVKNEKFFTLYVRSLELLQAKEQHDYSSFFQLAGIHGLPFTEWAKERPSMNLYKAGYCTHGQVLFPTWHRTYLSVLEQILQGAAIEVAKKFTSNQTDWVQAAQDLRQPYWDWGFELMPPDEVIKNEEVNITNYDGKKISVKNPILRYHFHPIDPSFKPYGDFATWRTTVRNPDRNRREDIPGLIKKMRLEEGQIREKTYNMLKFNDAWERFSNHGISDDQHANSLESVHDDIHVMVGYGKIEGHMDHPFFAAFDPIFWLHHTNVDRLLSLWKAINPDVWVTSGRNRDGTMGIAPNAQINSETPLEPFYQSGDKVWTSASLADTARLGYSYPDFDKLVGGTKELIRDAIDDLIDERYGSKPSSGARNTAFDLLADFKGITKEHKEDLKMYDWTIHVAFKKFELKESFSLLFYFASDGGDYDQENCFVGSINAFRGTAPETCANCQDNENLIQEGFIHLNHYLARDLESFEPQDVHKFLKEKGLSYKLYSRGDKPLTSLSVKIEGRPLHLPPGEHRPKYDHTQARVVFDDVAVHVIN
Listed here are compounds together with their documented pIC50.
Expect pIC50 as a plain number equal to -log10 of the molar concentration.

C/C(CCc1ccc(OC(=O)c2ccccc2)cc1)=N\NC(N)=S : 6.81
CCCCCCOc1ccc(CC/C(C)=N/NC(N)=S)cc1 : 6.12

Requested field: pIC50. Item: `C/C(CCc1ccc(OCCC(C)C)cc1)=N\NC(N)=S`
6.32

Given the compound `COc1ccc(CC/C(C)=N/NC(N)=S)cc1` , what is its reported pIC50?
6.73

I am curious: what pIC50 value has been reported for `NNC(=S)NN` ?
3.75

---

Listed here: items and their measured pIC50.
Target protein (sequence): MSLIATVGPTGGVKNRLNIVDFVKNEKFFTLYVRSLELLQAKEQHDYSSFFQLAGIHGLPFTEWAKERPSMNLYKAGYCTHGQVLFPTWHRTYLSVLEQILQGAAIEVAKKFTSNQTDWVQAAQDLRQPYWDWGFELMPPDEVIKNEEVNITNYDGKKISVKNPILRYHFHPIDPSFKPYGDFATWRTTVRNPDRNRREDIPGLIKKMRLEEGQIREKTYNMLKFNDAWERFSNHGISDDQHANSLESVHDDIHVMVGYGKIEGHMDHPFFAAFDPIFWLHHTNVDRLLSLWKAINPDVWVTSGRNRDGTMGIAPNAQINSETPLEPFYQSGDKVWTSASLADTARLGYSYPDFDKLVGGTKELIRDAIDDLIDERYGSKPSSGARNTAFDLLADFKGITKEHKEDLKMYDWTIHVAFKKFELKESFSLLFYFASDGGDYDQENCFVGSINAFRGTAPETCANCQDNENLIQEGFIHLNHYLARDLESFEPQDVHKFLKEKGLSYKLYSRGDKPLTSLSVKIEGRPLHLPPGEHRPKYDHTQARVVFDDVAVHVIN
// pIC50 is dimensionless: -log10 of concentration (M)

The cases that follow already have their pIC50 on record.
CCCCOc1ccc(CC/C(C)=N/NC(N)=S)cc1 : 6.57
C/C(CCc1ccc(OCC(=O)O)cc1)=N\NC(N)=S : 6.23
CCCCOc1ccc(CC/C(C)=N/NC(=S)NN)cc1 : 3.64

Shift focus to the following entry.
Entry `CC(=O)Oc1ccc(CC/C(C)=N/NC(N)=S)cc1` has what pIC50?
7.14
